B1: SLC35F2 (parent)
chain: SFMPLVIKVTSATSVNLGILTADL

variants of: B1; assay: protein stability index of a GFP-peptide fusion (GPS, HEK-293T) (PSI 1-6); higher = more stable; conditions: c terminus: a fixed tail appended;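 further: lentivirally expressed fusions sorted by FACS into six bins by GFP to DsRed ratio, PSI derived from sequencing read proportions per bin multiplied by bin number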
Measurement Name: protein stability index
Output spec: single numeric token, no unit.

> print(dat)
   variant.id  result.number
1        A12H           2.37

Query block: Suppose we examine the variant G18Y ; what protein stability index value has been reported?
Result block: 3.08

Query block: Can you check L24W next?
Result block: 1.78

Query block: Can you check K8P next?
Result block: 2.19

Query block: Can you check L24Y next?
Result block: 4.32

Query block: Can you check T10E next?
Result block: 2.98

Query block: Can you check I7P next?
Result block: 1.88

Query block: Can you check P4C next?
Result block: 3.66

Query block: Can you check L17T next?
Result block: 2.56

Query block: Can you check L20Y next?
Result block: 3.69

Query block: Can you check L5V next?
Result block: 2.41

Query block: Can you check M3Q next?
Result block: 2.13

Query block: Can you check S11K next?
Result block: 2.9

Query block: Can you check I7L next?
Result block: 3.42

Query block: Can you check K8D next?
Result block: 2.75

Reference source: the supplement of paper PMC10567573
